Biological target: His-tagged human recombinant DDR-2 kinase domain (His-TEV-DDR2 467-855 aa) (Homo sapiens)
Construct: His-TEV-DDR2 467-855 aa
Assay: Autophosphorylation assay for biochemical activity testing of DDR2 (HTRF)
Conditions: biochemical DDR2 autophosphorylation
Friendly reminder: IC50 below 200 nM is Fulfilled, at or above is Not fulfilled.

Example cases with answers are listed next.
{"columns": ["COMPOUND", "CLASS_ASSIGNMENT"],
 "data": [
  ["Cc1cc(NC(=O)NCc2ccc(Oc3ccnc(N)c3)c(C)c2)c(OCCN(C)C)cc1Cl [compound 254]", "Fulfilled"],
  ["CNC(=O)c1cc(Oc2ccc(CNC(=O)Nc3cc(C(F)(F)F)ccc3OCCNS(C)(=O)=O)cc2)ccn1 [compound 180]", "Fulfilled"],
  ["CNC(=O)c1cc(Oc2ccc(CNC(=O)Nc3ccc(OC)nc3)cc2)ccn1 [compound 227]", "Not fulfilled"],
  ["CNC(=O)c1cc(Oc2ccc(CNC(=O)Nc3cc4ccccc4cn3)cc2)ccn1 [compound 96]", "Fulfilled"]
]}

Ask | Please let me know if CNC(=O)c1cc(Oc2ccc(CNC(=O)Nc3cc(C(F)(F)F)ccc3OCCOC)cc2)ccn1 [compound 166] shows IC50 below 200 nM.
Reply | Fulfilled

Ask | Please let me know if CCOc1ccc(NC(=O)NCc2ccc(Oc3ccncc3)cc2)cc1 [compound 41] shows IC50 below 200 nM.
Reply | Not fulfilled

Ask | Please let me know if CNC(=O)c1cc(Oc2ccc(CNC(=O)Nc3cc(C(F)(F)F)c(Cl)cc3OCC(=O)O)cc2)ccn1 [compound 98] shows IC50 below 200 nM.
Reply | Not fulfilled

Ask | Please let me know if CNC(=O)c1cc(Oc2ccc(CNC(=O)Nc3cc(C(F)(F)F)c(Cl)cc3OCCN3CCNCC3)cc2)ccn1 [compound 128] shows IC50 below 200 nM.
Reply | Fulfilled

----------
Molecular target: His-tagged human recombinant DDR-2 kinase domain (His-TEV-DDR2 467-855 aa) (Homo sapiens, UniProt Q16832)
Construct: His-TEV-DDR2 467-855 aa
Sequence (Q16832 467-855): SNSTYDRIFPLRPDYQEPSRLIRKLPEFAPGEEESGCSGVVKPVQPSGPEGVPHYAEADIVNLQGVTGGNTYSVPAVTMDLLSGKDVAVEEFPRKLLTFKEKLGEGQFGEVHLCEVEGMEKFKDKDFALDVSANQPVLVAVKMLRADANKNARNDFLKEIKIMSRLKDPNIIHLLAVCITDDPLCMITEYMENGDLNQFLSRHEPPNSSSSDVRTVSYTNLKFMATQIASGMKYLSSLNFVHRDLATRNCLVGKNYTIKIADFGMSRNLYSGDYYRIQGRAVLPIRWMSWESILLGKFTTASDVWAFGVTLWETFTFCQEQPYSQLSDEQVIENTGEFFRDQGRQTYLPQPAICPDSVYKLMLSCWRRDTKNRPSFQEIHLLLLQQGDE
Assay: Autophosphorylation assay for biochemical activity testing of DDR2 (HTRF)
Details: biochemical DDR2 autophosphorylation
ENDPOINT: pIC50
Give bare numbers, as −log10 of the molar value.

{"columns": ["COMPOUND", "pIC50"],
 "data": [
  ["CCOc1ccc(C(F)(F)F)cc1NC(=O)NCc1ccc(Oc2ccnc(C(=O)NC)c2)cc1", 7.05],
  ["CNC(=O)c1cc(Oc2ccc(CNC(=O)Nc3cnc4ccccc4c3)cc2)ccn1", 6.54],
  ["CNC(=O)c1cc(Oc2ccc(CNC(=O)Nc3cc(Cl)c(C)cc3OCCN3CCCC3)cc2)ccn1", 6.59],
  ["CNC(=O)c1cc(Oc2ccc(CNC(=O)Nc3cc(Cl)c(C)cc3OCCN)cc2)ccn1", 7.57],
  ["COc1ccc(NC(=O)NCc2ccc(Oc3ccncc3)cc2)cc1Cl", 5.55],
  ["COc1cc(Cl)c(C)cc1NC(=O)NCc1ccc(Oc2ccnc(C(=O)NCCCCCCN)c2)cc1", 6.82]
]}

Hey, quick one: what's pIC50 for each of these?
1. CNC(=O)c1cc(Oc2ccc(CNC(=O)Nc3cc(C(F)(F)F)c(Cl)cc3OCC(=O)OC(C)(C)C)cc2)ccn1
2. CNC(=O)c1cc(Oc2ccc(C(C)NC(=O)Nc3cc(C(F)(F)F)ccc3OC)cc2)ccn1 (stereo not shown)
3. CNC(=O)c1cc(Oc2ccc(CNC(=O)Nc3cc(C)ccc3OC3CCNCC3)cc2C)ccn1

Reply |
1. 7.66
2. 6.82
3. 7.33

Hey, quick one: what's pIC50 for each of these?
1. CNC(=O)c1cc(Oc2ccc(CNC(=O)Nc3cc(C(F)(F)F)ccc3OCCN3CCNCC3)cc2)ccn1
2. CNC(=O)c1cc(Oc2ccc(CNC(=O)Nc3cc(C)c(Cl)cc3OCCN(C)C)cc2C)ccn1
3. Cc1ccc(NC(=O)NCc2ccc(Oc3ccncc3)cc2)c(C)c1
4. CNC(=O)c1cc(Oc2ccc(CNC(=O)Nc3cc(C(F)(F)F)c(Cl)cc3OCCN(C)C)cc2C)ccn1
5. O=C(NCc1ccc(Oc2ccncc2)cc1)Nc1ccc(F)c(C(F)(F)F)c1
6. CNC(=O)c1cc(Oc2ccc(CNC(=O)Nc3cc(C(F)(F)F)c(Cl)cc3OCCN)cc2)ccn1

Reply |
[6.89, 7.59, 4.55, 7.60, 7.00, 6.92]
